Target: T1, cynomolgus DLL4 expressed on CHO cells (cynomolgus, UniProt Q9NR61 27-685 (human entry))
T1 construct: also called cDLL4; CHO-cDLL4
T1 chain: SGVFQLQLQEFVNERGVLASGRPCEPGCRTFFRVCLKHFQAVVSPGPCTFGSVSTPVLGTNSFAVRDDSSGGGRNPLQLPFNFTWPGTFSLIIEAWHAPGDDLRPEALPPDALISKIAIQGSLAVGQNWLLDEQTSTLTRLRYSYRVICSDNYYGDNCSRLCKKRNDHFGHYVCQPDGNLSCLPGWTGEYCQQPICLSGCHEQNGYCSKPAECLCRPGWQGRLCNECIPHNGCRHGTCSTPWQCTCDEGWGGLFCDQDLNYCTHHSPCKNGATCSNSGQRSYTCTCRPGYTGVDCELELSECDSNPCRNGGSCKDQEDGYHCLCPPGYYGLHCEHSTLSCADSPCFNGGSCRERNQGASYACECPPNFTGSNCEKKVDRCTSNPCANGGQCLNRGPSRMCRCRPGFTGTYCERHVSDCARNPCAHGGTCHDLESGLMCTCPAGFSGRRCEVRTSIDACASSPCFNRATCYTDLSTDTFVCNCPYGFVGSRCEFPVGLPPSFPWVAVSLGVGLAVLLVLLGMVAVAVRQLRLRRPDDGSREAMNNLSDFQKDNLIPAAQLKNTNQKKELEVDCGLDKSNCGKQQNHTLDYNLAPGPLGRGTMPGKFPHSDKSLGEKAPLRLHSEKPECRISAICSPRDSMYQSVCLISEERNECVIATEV
Experiment: FACS on CHO-cDLL4 cells
Metric: EC50 (µM)
Dear colleague, please return just the value in µM, with no unit written.

- Binder: "DLLBII129B05 (VHH, not shown: small tags and cut ends) VHH: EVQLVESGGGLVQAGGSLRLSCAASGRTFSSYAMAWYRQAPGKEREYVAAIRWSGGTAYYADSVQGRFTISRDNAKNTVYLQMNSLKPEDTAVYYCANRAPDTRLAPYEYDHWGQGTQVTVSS"
  EC50 [µM]: 0.0039
- Binder: "DLLBII101G08 (VHH, not shown: small tags and cut ends, parent VHH; also called 101G08 (wt); 101G8) VHH: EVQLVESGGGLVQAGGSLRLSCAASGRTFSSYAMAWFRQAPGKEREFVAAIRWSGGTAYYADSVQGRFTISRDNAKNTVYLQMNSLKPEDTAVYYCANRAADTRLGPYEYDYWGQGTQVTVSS"
  EC50 [µM]: 0.0112

Could you now consider this next binder?
Lab note: measured EC50 of DLLBII115A05 (VHH, not shown: small tags and cut ends, parent VHH; also called 115A05 (wt); 115A5) VHH: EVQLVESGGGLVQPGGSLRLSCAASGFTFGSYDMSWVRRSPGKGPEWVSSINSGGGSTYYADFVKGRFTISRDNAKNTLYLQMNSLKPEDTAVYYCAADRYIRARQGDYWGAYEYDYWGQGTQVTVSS was 0.0138

The measurements presented in this section are drawn from patent US20140120095A1.
